target: ePHF (human, UniProt P10636); assay: ELISA
Sequence (P10636 2-758): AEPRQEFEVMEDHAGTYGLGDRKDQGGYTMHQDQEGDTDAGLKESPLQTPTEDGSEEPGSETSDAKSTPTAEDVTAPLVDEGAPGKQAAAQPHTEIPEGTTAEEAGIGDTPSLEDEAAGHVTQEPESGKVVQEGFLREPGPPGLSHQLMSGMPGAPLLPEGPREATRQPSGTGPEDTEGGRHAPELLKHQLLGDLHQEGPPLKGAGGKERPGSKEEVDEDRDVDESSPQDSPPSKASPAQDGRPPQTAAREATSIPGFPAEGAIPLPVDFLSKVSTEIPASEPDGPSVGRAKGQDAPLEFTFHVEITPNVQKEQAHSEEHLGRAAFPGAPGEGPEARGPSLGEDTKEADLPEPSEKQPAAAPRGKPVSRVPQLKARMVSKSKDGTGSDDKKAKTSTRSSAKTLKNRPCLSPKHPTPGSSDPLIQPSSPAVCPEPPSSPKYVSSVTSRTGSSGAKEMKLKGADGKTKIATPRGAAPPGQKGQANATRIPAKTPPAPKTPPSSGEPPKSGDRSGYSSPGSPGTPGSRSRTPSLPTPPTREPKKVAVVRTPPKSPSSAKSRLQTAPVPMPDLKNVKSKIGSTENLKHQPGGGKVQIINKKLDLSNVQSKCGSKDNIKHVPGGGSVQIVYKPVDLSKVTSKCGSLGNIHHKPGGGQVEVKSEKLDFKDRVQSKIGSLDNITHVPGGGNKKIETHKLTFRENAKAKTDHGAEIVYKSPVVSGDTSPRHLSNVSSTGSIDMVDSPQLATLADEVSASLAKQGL
endpoint: EC50
A complete answer gives the number followed by the unit.

Example binders with recorded EC50:
binder	EC50
Ab1 (antibody, V domains shown, enriched paired helical filament tau, hyperphosphorylated) VH: QVQLVQSGAEVKKSGASVKVSCKASGFTFTRYWMHWVRQAPGQGLEWIGNINPNNGGTDFNEKFKNRVTLIRDTSTTTVFIQLTSLTSEDSAVYYCARGTGTGAMDYWGQGTLVTVSS VL: DIVMTQSPLSLSVTPGQPASISCRSSQSLVHNNGITYLYWYLQKPGQSPQLLIYRVSNRFSGVPDRFSGSGSGTDFTLKISRVEAEDVGVYYCFQGTHVPRTFGQGTKVEIK	85 pM
Ab10 (antibody, V domains shown, enriched paired helical filament tau, hyperphosphorylated) VH: EVQLVQSGAEVKKPGSSVKVSCKASGFTFTRYWMHWVKERPGHGLEWIGNINPNNGGTDFNEKFKNRVTMTVHKSITTAYMELSRLTSDDSAVYYCARGTGTGAMDYWGQGTLVSVSS VL: DIVMTQTPLSSPVTLGQPASISCRSSQSLVHNNGITYLYWYQQRPGQPPRLLIYRVSNRFSGVPDRFSGSGAGTDFTLKINRVEAEDVGVYFCFQGTHVPRTFGQGTKLEIK	140 pM

# get_value(readout='EC50', item= Ab4 (antibody, V domains shown, enriched paired helical filament tau, hyperphosphorylated) VH: QVQLVQSGAEVKKPGASVKVSCKASGFTFTRYWMHWVKERPGQGLEWMGNINPNNGGTDFNEKFKNRVTMTVHKSTSTVFIQLSSLRSEDTAVYYCARGTGTGAMDYWGQGTSVTVSS VL: DIVMTQSPLSLSVTPGQPASISCRSSQSLVHNNGITYLYWYLQKPGQSPQLLIYRVSNRFSGVPDRFSGSGSGTDFTLKISRVEAEDVGVYYCFQGTHVPRTFGQGTKVEIK ) 180 pM
